Recorded values, source the EternaBench riboswitch data.

test system: MS2 coat protein; assay: apparent Kd, MS2 coat protein; higher = weaker binding; RNA-MaP array; conditions: designed as: ON switch for flavin mononucleotide; no ligand
Measurement kind: apparent Kd (nM)
Give the quantity in nM, number only.

Q. # get_value(readout='apparent Kd', item= "UCGCGUCUAGCUCAGGAUAUUGUGCCUGAUACAUGAGGAUCACCCAUGUCCUAAGUGCAAACCAACAAGAAGGGAGCUAAGCAUGU" )
A. 13.9

Q. Name the reported apparent Kd value associated with the sequence "UAGUAUGGCACAGGAUAUACAAUUAAUAUGCGGGUAGAAGGGUGGUAUCGACAUGAGGAUCACCCAUGUUAGGAAGAAACACAC"
A. 134

Q. Which apparent Kd is listed for "GGGUUACACACAUGAGGAUCACCCAUGUUUGCGUGGGCGGGCAGAAGGAGAACCGGAUUACACUUCUAGGAUAUGCAGAUGAUC" ?
A. 23.6

Q. Which apparent Kd reading was recorded for the sequence "CGCCCUAAAGAUAAGGAUAUUCAGUUAGUAACAUGAGGAUCACCCAUGUGCACAUUUCACUUGAUGAAGAAGGUAUCUGGAACAUU" ?
A. 8.27

Q. Dear colleague, I am looking for the recorded apparent Kd of the following sequence: "CAGGUUCGUACAGGAUAUGGUUACAUGAGGAUCACCCAUGUGCGGUGAGCUGAUUAGUGCACAGUCCAGAAGGGUAGGAUAACA"
A. 852

Q. So what's the measured apparent Kd for this one? "GCCACGCUAGAAGGAUAUUUGCCAUAAGUACGGAAAGAAGGUCUCGCCGGAUCGAACAUGAGGAUCACCCAUGUGUGGGUCAGA"
A. 43.8

Q. For the sequence shown here, "GGACGCCAUAUAGAGGAUAUUAAUGUCGACACAUGAGGAUCACCCAUGUCCCACUCGGGCGAACAUAAGAAGGCUAAUCAGACGUA" , give the reported apparent Kd.
A. 14.5

Q. Would you kindly share the measured apparent Kd for "UAGCAGUUCACAGGAUAUAGUUUGCGAUAAGUUUAUUUAUGAGAGACAUGAGGAUCACCCAUGUACUAGAAGGGUGAGAAAUAA" ?
A. 461

Q. I am curious: what apparent Kd value has been reported for "AGAAUGACAAAAUUGCAACAUGAGGAUCACCCAUGUGAUACAAGAAGGACAAACCGCUCAAGAGUGUAGGAUAUUGUGGAAAUC" ?
A. 25.6

Q. Which value of apparent Kd has been reported for "CAUCAGGGAUCAGGAUAUACAAUGGGUACAUGAGGAUCACCCAUGUAGACGCCAACACUGUCAUUGUAGAAGGGAUUGAGCGAA" in the records?
A. 55.1

Q. apparent Kd for "GCCAAGCUCUAAGGAUAUGUUCACACCGGUGAGACAGAAGGUAGUAGUGUACUGCACAUGAGGAUCACCCAUGUAAACGGAUAA" ?
A. 64.2

Q. Could you share which apparent Kd value was measured for "GUUUUGCGAAUAGGAUAUAGUAAUGAUUCAGGAAGCCUGAACAUGAGGAUCACCCAUGUGCCAUCCUAGAAGGAUUCGCACGUG" ?
A. 359

Q. // returns reported apparent Kd for input "GACGAACAUGAGGAUCACCCAUGUUAACCGAUCACCACGUUCAGAAGGAGGGACAUAACGAGCACCUAGGAUAUGACCAAACAC"
A. 24.2

Q. Dear colleague, I am looking for the recorded apparent Kd of the following sequence: "GCACUUAUAGCAGGAUAUCUUUAAACACCGAAAGGUAGCGGUACAUGAGGAUCACCCAUGUCAACAGAGAAGGGCUCAUAGUCU"
A. 11.1

Q. // query apparent Kd value for entry "AGAAGGGACGAGAAGGUACGAUCGAGUAAACUAUGAUAUGGGCACAUGAGGAUCACCCAUGUAUGUAAGGAUAUCGCAUCUCCA"
A. 50.5

Q. Field request: apparent Kd | item: "ACUCCACAUGAGGAUCACCCAUGUUAUAAGUAGGUAGGAUAUCACACAAACUUACAUGGAUGAGAAGGACCGGUCC"
A. 328

Q. Which apparent Kd value is on record for "UGUUACAUGAGGAUCACCCAUGUCAGAUGGUCUGGCUAUUACAGAAGGAAUAAAGAACGUCGAGAUUAGGAUAUGUGUAGAUGA" ?
A. 40.9

Q. Record request: apparent Kd value, item "CUUCUUCGUGCAGGAUAUAAGGGAACACGAUGACAUGAGGAUCACCCAUGUUCUAUAAGCAGGCUUUAGAAGGGCAUUUUGGAU"
A. 27.1

Q. Name the reported apparent Kd value associated with the sequence "AAAACAUGAGGAUCACCCAUGUUGAUCAAACACCAGACCAAGAGAAGGAUCAGCACCGAGUGAUGAAAGGAUAUCUAUUAACGG"
A. 39.2

Q. Tell me the measured apparent Kd of "GCAGGACAUGAGGAUCACCCAUGUGAUACUAUGACAGGAUAUGAUUGAAAACUUACUAGAACAGAAGGGUCGUGUA" , please.
A. 94.3

Q. Which value of apparent Kd has been reported for "UCCGGCGUUGACUAGGAUAUACGGAGGGUAACAUGAGGAUCACCCAUGUAAAGAACUAAAACAGCGUAGAAGGAGUCCAAAGCGAC" in the records?
A. 28

Q. Any idea what its apparent Kd is? The sequence is "AGCCCACAUGAGGAUCACCCAUGUACUUGGUCCUCAGGAUAUCUAGUUCCAUAUUACAAAAGAGAAGGGAGGAUUG"
A. 110

Q. Form field: reported apparent Kd of "UAUAAGGGUCAGAAGGCAGUGGCGCAGAAUGACUGAGGAUAUGAUAACCGGUAAUUUAACAUGAGGAUCACCCAUGUCUACAAC"
A. 11.7

Q. Reported apparent Kd for "GCUAAUCCAGGAGGAUAUAGGUUCUUUUCUACACAUGAGGAUCACCCAUGUGCAUCCCGGCGUACCUAGAAGGCCUGUCUAAAA" : what is it?
A. 25.9

Q. Can you share its apparent Kd? I mean this sequence: "AUAGAGGAUAAAGGAUAUGAGGUGAACAUCGAUUCAGAAGGUUAUCAGGAUACAUGAGGAUCACCCAUGUUUCCUUUGCUGUUG"
A. 38.5

Q. Look up apparent Kd for this sequence: "AGCUAUUUUUGGGAGGAUAUUAUGAGCAGUACAUGAGGAUCACCCAUGUUAGUAAUAUACAUUGGUAAGAAGGCCCAAUCAUAAGG"
A. 34.6

Q. Suppose we examine the sequence "UUACUACAUGAGGAUCACCCAUGUGAAAAUUAAACGAAAAGUUAGGAUAUGAAUGGAAAUGCACCUCAGAAGGAACGCGACAAG" ; what apparent Kd value has been reported?
A. 18.4

Q. Query: apparent Kd; subject: "CGUGAUCGCAGAAAGGAUAUUUGGCCUGUAACAUGAGGAUCACCCAUGUUCAAAUGUGACUUACUAAAGAAGGUUCGAAGAUCCAA"
A. 7.23

---

Provide the reported apparent Kd of each item.
tested on: MS2 coat protein; experiment: apparent Kd, MS2 coat protein; higher = weaker binding; RNA-MaP array; theophylline 2 mM where present; settings: designed as: OFF switch for theophylline; no ligand
Answer with a number only, understood to be in nM.

Q. Requested read-out: apparent Kd. Entry: "GGGAAUGAACGUGAUACCAGAGAUCCGGUCUCCGUCAAUAUACAUGAGGAUCACCCAUGUCUCCCUUGGCAGCACCGUCAUCGGG"
A. 14.8

Q. Item "GAGCUGAUGUAGAGCUAAUAUAAGAGAGAUACCAGUACAGAAAUGUACCCUUGGCAGCUCAACUUUACAUGAGGAUCACCCAUGU" has what recorded apparent Kd?
A. 13.9

Q. // query apparent Kd value for entry "UGACAUUGCUCAGAUACCAGACAUGAGGAUCACCCAUGUACCAAGAAAACGUACAUAAAUGUCCCUUGGCAGCUGAGCAAUGUCU"
A. 524

Q. What does the record list as apparent Kd for "CCAUAUGUAACUGAUACCAGUGUACUGACAUGAGGAUCACCCAUGUUGGGUUUUGUUGUACACCCUUGGCAGCAGAAUCAUAUGG" ?
A. 62.4

Q. Which apparent Kd is listed for "ACGUCACGUUUACUCGUGGUUUCGAUCGAUACCAGUAGCGAGAGUUACCCUUGGCAGCGACAUGAGGAUCACCCAUGUACGAAGA" ?
A. 13.5

Q. I have this sequence here, "AUACCUAAUGAGUCGUGUAACUUUUCAGAUACCAGACUUUUCGUUGUCCCUUGGCAGCUGUUUUACAUGAGGAUCACCCAUGUUG" , and I need its recorded apparent Kd.
A. 15.9

Q. Any idea what apparent Kd was measured for "CAGCCUGAUUGGUAAAUCCCUCAUCGUGAUACCAGUCGAGUGAUCGACCCUUGGCAGCACAUGAGGAUCACCCAUGUGCGCGUAA" ?
A. 26.7
